- EXPERIMENT: Cytotoxicity against human HMEC1 cells after 72 hrs by crystal violet staining assay
- Format: functional, cell-based
- SETUP_CONDITIONS: HMEC-1, 72 h
Would you mind telling me the reported EC50 of each entry?

IN: Annotate the compound `CC[C@H](C)[C@H](NC(=O)[C@H]1CCCCN1C)C(=O)N(C)[C@H](CCc1nc(C(=O)N[C@H](CCC(=O)O)Cc2ccccc2)cs1)C(C)C` with its measured EC50.
OUT: 4.4 nM

IN: Give the measured EC50 for `CC[C@H](C)[C@H](NC(=O)[C@H]1CCCCN1C)C(=O)N(C)[C@H](CCc1cccc(C(=O)N[C@@H](Cc2ccccc2)C[C@H](C)C(=O)O)c1)C(C)C`
OUT: 13.2 nM
